Biological target: T1, cynomolgus monkey CD3 on the surface of expanded monkey T cells (cynomolgus monkey, UniProt Q95LI5 22-198; Q95LI8 22-171; Q95LI7 23-181)
T1 construct: whole, on cells; Endogenous CD3 within the TCR-CD3 complex on T cells expanded from cynomolgus monkey PBMC
T1 sequence (Q95LI5 22-198, chain 1 of 3): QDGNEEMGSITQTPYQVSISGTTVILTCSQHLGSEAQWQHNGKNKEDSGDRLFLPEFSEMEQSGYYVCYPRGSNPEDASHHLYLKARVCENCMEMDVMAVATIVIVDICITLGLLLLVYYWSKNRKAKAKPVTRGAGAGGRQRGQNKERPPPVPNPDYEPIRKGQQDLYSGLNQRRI
T1 sequence (Q95LI8 22-171, chain 2 of 3): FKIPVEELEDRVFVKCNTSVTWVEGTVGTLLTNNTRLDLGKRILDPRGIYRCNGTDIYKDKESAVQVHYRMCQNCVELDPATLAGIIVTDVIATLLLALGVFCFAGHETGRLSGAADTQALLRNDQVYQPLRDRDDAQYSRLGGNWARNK
T1 sequence (Q95LI7 23-181, chain 3 of 3): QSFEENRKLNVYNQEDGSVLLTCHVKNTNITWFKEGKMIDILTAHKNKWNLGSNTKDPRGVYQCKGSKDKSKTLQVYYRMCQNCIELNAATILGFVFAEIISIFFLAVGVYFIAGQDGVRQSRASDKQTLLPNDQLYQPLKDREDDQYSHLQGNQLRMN
Test: FACS, expanded monkey T cells
Hi there, I'd appreciate the recorded MFI_Max for every entry that follows.
Respond with the bare value in MFI.

Input: Which MFI_Max is reported for this binder? 6-44.5 human-murine chimeric antibody (antibody, human IgG1, kappa, V domains shown, Human IgG1 chimera) VH: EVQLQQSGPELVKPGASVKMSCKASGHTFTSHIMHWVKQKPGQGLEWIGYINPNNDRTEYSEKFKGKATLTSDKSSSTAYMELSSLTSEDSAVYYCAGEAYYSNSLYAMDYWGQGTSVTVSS VL: DIVMSQSPSSLAVSAGEKVTMSCKSSQSLFNSRTRKNYLAWYQQKPGQSPELLIYWASTRESGVPVRFTGSGSGTDFTLTISSVQAEDLAVYYCKQSYYLRTFGGGTKLEVKR
Output: 27100

Input: Then 5-7.13 human-murine chimeric antibody (antibody, human IgG1, kappa, V domains shown, Human IgG1 chimera) VH: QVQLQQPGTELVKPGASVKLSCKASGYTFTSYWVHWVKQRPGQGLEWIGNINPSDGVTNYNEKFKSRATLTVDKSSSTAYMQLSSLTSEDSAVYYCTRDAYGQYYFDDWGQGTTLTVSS VL: DIVMSQSPSSLVVSAGEKVTMSCKSSQSLLNSRTRKNYLAWYQQKPGQSPKLLIYWASVRDSGVPDRFTGSGSGTDFTLTISNVQAEDLAVYYCIQSYYLRTFGGGTILEIKR ?
Output: 26500
